Conditions: in n-propanol, 288.15 K
readout-kind: solubility (mole fraction)

[[record]]
compound = "O=C(O)CNC(=O)OCc1ccccc1"
readout_kind = "solubility (mole fraction)"
result_value = 0.0327


---

Conditions: in methyl acetate, 293.15 K
readout-kind: solubility (mole fraction)

[[record]]
compound = "O=C(O)CNC(=O)OCc1ccccc1"
result_value = 0.0366


---

Details: in acetonitrile, 283.15 K
readout-kind: solubility (mole fraction)

[[record]]
compound = "O=C(O)CNC(=O)OCc1ccccc1"
result_value = 0.0106


---

Settings: in methyl acetate, 303.15 K
readout-kind: solubility (mole fraction)

[[record]]
compound = "O=C(O)CNC(=O)OCc1ccccc1"
readout_kind = "solubility (mole fraction)"
result_value = 0.053


---

Details: in acetonitrile, 308.15 K
readout-kind: solubility (mole fraction)

[[record]]
compound = "O=C(O)CNC(=O)OCc1ccccc1"
readout_kind = "solubility (mole fraction)"
result_value = 0.032


---

Settings: in n-pentanol, 298.15 K
readout-kind: solubility (mole fraction)

[[record]]
compound = "O=C(O)CNC(=O)OCc1ccccc1"
result_value = 0.0349


---

Conditions: in acetone, 318.15 K
readout-kind: solubility (mole fraction)

[[record]]
compound = "O=C(O)CNC(=O)OCc1ccccc1"
readout_kind = "solubility (mole fraction)"
result_value = 0.169


---

Details: in n-pentanol, 318.15 K
readout-kind: solubility (mole fraction)

[[record]]
compound = "O=C(O)CNC(=O)OCc1ccccc1"
result_value = 0.0886


---

Settings: in methanol, 303.15 K
readout-kind: solubility (mole fraction)

[[record]]
compound = "O=C(O)CNC(=O)OCc1ccccc1"
result_value = 0.123


---

Conditions: in acetonitrile, 303.15 K
readout-kind: solubility (mole fraction)

[[record]]
compound = "O=C(O)CNC(=O)OCc1ccccc1"
readout_kind = "solubility (mole fraction)"
result_value = 0.0251


---

Settings: in methanol, 308.15 K
readout-kind: solubility (mole fraction)

[[record]]
compound = "O=C(O)CNC(=O)OCc1ccccc1"
result_value = 0.143


---

Conditions: in ethanol, 293.15 K
readout-kind: solubility (mole fraction)

[[record]]
compound = "O=C(O)CNC(=O)OCc1ccccc1"
readout_kind = "solubility (mole fraction)"
result_value = 0.0611


---

Conditions: in ethyl acetate, 308.15 K
readout-kind: solubility (mole fraction)

[[record]]
compound = "O=C(O)CNC(=O)OCc1ccccc1"
result_value = 0.0442


---

Conditions: in methanol, 318.15 K
readout-kind: solubility (mole fraction)

[[record]]
compound = "O=C(O)CNC(=O)OCc1ccccc1"
readout_kind = "solubility (mole fraction)"
result_value = 0.19


---

Details: in acetone, 283.15 K
readout-kind: solubility (mole fraction)

[[record]]
compound = "O=C(O)CNC(=O)OCc1ccccc1"
readout_kind = "solubility (mole fraction)"
result_value = 0.0617


---

Details: in acetone, 308.15 K
readout-kind: solubility (mole fraction)

[[record]]
compound = "O=C(O)CNC(=O)OCc1ccccc1"
result_value = 0.123


---

Conditions: in isopropanol, 323.15 K
readout-kind: solubility (mole fraction)

[[record]]
compound = "O=C(O)CNC(=O)OCc1ccccc1"
readout_kind = "solubility (mole fraction)"
result_value = 0.16


---

Details: in n-propanol, 293.15 K
readout-kind: solubility (mole fraction)

[[record]]
compound = "O=C(O)CNC(=O)OCc1ccccc1"
result_value = 0.0399


---

Settings: in methyl acetate, 318.15 K
readout-kind: solubility (mole fraction)

[[record]]
compound = "O=C(O)CNC(=O)OCc1ccccc1"
readout_kind = "solubility (mole fraction)"
result_value = 0.0902


---

Settings: in ethyl acetate, 303.15 K
readout-kind: solubility (mole fraction)

[[record]]
compound = "O=C(O)CNC(=O)OCc1ccccc1"
result_value = 0.0369


---

Conditions: in acetone, 288.15 K
readout-kind: solubility (mole fraction)

[[record]]
compound = "O=C(O)CNC(=O)OCc1ccccc1"
result_value = 0.0709


---

Settings: in ethanol, 308.15 K
readout-kind: solubility (mole fraction)

[[record]]
compound = "O=C(O)CNC(=O)OCc1ccccc1"
result_value = 0.11


---

Settings: in isopropanol, 298.15 K
readout-kind: solubility (mole fraction)

[[record]]
compound = "O=C(O)CNC(=O)OCc1ccccc1"
result_value = 0.0566


---

Conditions: in isobutanol, 298.15 K
readout-kind: solubility (mole fraction)

[[record]]
compound = "O=C(O)CNC(=O)OCc1ccccc1"
result_value = 0.0315


---

Conditions: in 2-butanone, 293.15 K
readout-kind: solubility (mole fraction)

[[record]]
compound = "O=C(O)CNC(=O)OCc1ccccc1"
result_value = 0.0508


---

Details: in acetone, 303.15 K
readout-kind: solubility (mole fraction)

[[record]]
compound = "O=C(O)CNC(=O)OCc1ccccc1"
result_value = 0.108


---

Conditions: in methyl acetate, 298.15 K
readout-kind: solubility (mole fraction)

[[record]]
compound = "O=C(O)CNC(=O)OCc1ccccc1"
result_value = 0.0436


---

Conditions: in isopropanol, 283.15 K
readout-kind: solubility (mole fraction)

[[record]]
compound = "O=C(O)CNC(=O)OCc1ccccc1"
result_value = 0.0261


---

Settings: in ethanol, 313.15 K
readout-kind: solubility (mole fraction)

[[record]]
compound = "O=C(O)CNC(=O)OCc1ccccc1"
readout_kind = "solubility (mole fraction)"
result_value = 0.131


---

Settings: in ethanol, 318.15 K
readout-kind: solubility (mole fraction)

[[record]]
compound = "O=C(O)CNC(=O)OCc1ccccc1"
result_value = 0.157


---

Conditions: in acetonitrile, 323.15 K
readout-kind: solubility (mole fraction)

[[record]]
compound = "O=C(O)CNC(=O)OCc1ccccc1"
result_value = 0.067


---

Details: in ethyl acetate, 293.15 K
readout-kind: solubility (mole fraction)

[[record]]
compound = "O=C(O)CNC(=O)OCc1ccccc1"
readout_kind = "solubility (mole fraction)"
result_value = 0.026


---

Settings: in n-butanol, 303.15 K
readout-kind: solubility (mole fraction)

[[record]]
compound = "O=C(O)CNC(=O)OCc1ccccc1"
result_value = 0.0504


---

Conditions: in ethyl acetate, 313.15 K
readout-kind: solubility (mole fraction)

[[record]]
compound = "O=C(O)CNC(=O)OCc1ccccc1"
readout_kind = "solubility (mole fraction)"
result_value = 0.053


---

Conditions: in n-propanol, 303.15 K
readout-kind: solubility (mole fraction)

[[record]]
compound = "O=C(O)CNC(=O)OCc1ccccc1"
result_value = 0.0636


---

Details: in 2-butanone, 303.15 K
readout-kind: solubility (mole fraction)

[[record]]
compound = "O=C(O)CNC(=O)OCc1ccccc1"
result_value = 0.0692


---

Settings: in n-propanol, 323.15 K
readout-kind: solubility (mole fraction)

[[record]]
compound = "O=C(O)CNC(=O)OCc1ccccc1"
result_value = 0.149


---

Details: in methyl acetate, 288.15 K
readout-kind: solubility (mole fraction)

[[record]]
compound = "O=C(O)CNC(=O)OCc1ccccc1"
result_value = 0.0309


---

Settings: in methyl acetate, 283.15 K
readout-kind: solubility (mole fraction)

[[record]]
compound = "O=C(O)CNC(=O)OCc1ccccc1"
result_value = 0.0261


---

Conditions: in 2-butanone, 318.15 K
readout-kind: solubility (mole fraction)

[[record]]
compound = "O=C(O)CNC(=O)OCc1ccccc1"
result_value = 0.114


---

Conditions: in acetone, 298.15 K
readout-kind: solubility (mole fraction)

[[record]]
compound = "O=C(O)CNC(=O)OCc1ccccc1"
result_value = 0.0942


---

Conditions: in n-pentanol, 313.15 K
readout-kind: solubility (mole fraction)

[[record]]
compound = "O=C(O)CNC(=O)OCc1ccccc1"
result_value = 0.0727


---

Conditions: in acetonitrile, 313.15 K
readout-kind: solubility (mole fraction)

[[record]]
compound = "O=C(O)CNC(=O)OCc1ccccc1"
result_value = 0.0408


---

Conditions: in n-pentanol, 308.15 K
readout-kind: solubility (mole fraction)

[[record]]
compound = "O=C(O)CNC(=O)OCc1ccccc1"
result_value = 0.0578


---

Settings: in isopropanol, 318.15 K
readout-kind: solubility (mole fraction)

[[record]]
compound = "O=C(O)CNC(=O)OCc1ccccc1"
result_value = 0.133


---

Conditions: in isobutanol, 323.15 K
readout-kind: solubility (mole fraction)

[[record]]
compound = "O=C(O)CNC(=O)OCc1ccccc1"
readout_kind = "solubility (mole fraction)"
result_value = 0.109


---

Settings: in acetonitrile, 298.15 K
readout-kind: solubility (mole fraction)

[[record]]
compound = "O=C(O)CNC(=O)OCc1ccccc1"
result_value = 0.0198


---

Conditions: in n-butanol, 283.15 K
readout-kind: solubility (mole fraction)

[[record]]
compound = "O=C(O)CNC(=O)OCc1ccccc1"
result_value = 0.0205


---

Conditions: in 2-butanone, 323.15 K
readout-kind: solubility (mole fraction)

[[record]]
compound = "O=C(O)CNC(=O)OCc1ccccc1"
readout_kind = "solubility (mole fraction)"
result_value = 0.134


Data credit: BigSolDB 2.1
